# assayed-target: NMDAR2D (Homo sapiens)
# Construct: expressed in transfected cells; host or cells: HEK cells (membrane extract)
# Sequence (O15399 28-1336, species assumed, other chains not shown): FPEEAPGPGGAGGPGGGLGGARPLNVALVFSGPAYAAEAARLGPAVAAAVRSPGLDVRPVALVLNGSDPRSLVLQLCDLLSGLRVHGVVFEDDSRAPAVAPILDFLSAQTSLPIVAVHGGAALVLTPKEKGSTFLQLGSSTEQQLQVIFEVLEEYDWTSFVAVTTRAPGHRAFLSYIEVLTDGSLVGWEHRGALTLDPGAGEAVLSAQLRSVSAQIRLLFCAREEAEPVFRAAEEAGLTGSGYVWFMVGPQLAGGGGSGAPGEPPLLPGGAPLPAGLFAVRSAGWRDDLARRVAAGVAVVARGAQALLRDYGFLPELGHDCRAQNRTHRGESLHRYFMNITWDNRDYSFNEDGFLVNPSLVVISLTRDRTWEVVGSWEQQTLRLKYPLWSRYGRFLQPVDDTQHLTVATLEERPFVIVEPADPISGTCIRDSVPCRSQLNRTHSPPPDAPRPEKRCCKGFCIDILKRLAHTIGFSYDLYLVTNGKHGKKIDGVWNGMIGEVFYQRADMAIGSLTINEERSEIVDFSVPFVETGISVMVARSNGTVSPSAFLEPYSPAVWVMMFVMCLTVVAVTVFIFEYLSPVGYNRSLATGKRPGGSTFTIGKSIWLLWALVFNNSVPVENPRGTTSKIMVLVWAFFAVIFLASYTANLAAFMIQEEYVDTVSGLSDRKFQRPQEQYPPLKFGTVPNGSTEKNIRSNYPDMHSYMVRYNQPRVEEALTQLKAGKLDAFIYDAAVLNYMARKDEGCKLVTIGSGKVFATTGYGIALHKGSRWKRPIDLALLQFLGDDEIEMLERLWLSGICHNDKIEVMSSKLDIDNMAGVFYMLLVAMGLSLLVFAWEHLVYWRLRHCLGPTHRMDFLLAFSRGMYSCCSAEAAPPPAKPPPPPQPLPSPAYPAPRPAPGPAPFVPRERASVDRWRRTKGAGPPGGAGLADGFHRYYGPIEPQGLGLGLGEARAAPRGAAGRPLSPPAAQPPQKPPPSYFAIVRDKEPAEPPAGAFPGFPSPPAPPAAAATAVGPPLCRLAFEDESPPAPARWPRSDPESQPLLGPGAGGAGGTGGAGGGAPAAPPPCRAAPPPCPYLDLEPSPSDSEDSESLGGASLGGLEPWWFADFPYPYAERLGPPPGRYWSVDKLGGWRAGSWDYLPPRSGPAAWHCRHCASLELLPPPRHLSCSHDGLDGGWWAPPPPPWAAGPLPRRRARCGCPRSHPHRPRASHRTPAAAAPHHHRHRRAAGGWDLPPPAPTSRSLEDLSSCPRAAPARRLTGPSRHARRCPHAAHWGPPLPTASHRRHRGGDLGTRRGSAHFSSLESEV
# test-protocol: [3H]MK-801 binding in NMDAR2D expressing HEK cell membranes
# Type: biochemical
# experimental-parameters: second part of table (r25-r35); c3, taken as NMDAR2D
quantity: A: % maximal [3H]MK-801 binding relative to 1 mM glycine

molecule	observed-measurement
O=C1NCCC12CCCCN2 (centres unmarked)	+ (<100%=+)
CC(C)(C)OC(=O)N1CCCC2(CCNC2=O)C1 (single isomer, unassigned) [RA-1]	− (−=0)
CC(C)(C)OC(=O)N1CCCC2(CCNC2=O)C1 (single isomer, unassigned) [RE-1]	+ (<100%=+)
O=C1NCCC12CCCNC2 (centres unmarked) [RB-1, 2,7-diazaspiro[4.5]decan-1-one]	+ (<100%=+)

Shifting focus to the molecule that follows.
Asked: Look at this molecule and give its reported A: % maximal [3H]MK-801 binding relative to 1 mM glycine. CC(C)(C)OC(=O)N1CCCCC12CCNC2=O (centres unmarked)
Given back: − (−=0)

====

# assayed-target: NMDAR2A (Homo sapiens, UniProt Q12879)
# Construct: expressed in transfected cells; host or cells: HEK cells (membrane extract)
# Sequence (Q12879 23-1464, species assumed, other chains not shown): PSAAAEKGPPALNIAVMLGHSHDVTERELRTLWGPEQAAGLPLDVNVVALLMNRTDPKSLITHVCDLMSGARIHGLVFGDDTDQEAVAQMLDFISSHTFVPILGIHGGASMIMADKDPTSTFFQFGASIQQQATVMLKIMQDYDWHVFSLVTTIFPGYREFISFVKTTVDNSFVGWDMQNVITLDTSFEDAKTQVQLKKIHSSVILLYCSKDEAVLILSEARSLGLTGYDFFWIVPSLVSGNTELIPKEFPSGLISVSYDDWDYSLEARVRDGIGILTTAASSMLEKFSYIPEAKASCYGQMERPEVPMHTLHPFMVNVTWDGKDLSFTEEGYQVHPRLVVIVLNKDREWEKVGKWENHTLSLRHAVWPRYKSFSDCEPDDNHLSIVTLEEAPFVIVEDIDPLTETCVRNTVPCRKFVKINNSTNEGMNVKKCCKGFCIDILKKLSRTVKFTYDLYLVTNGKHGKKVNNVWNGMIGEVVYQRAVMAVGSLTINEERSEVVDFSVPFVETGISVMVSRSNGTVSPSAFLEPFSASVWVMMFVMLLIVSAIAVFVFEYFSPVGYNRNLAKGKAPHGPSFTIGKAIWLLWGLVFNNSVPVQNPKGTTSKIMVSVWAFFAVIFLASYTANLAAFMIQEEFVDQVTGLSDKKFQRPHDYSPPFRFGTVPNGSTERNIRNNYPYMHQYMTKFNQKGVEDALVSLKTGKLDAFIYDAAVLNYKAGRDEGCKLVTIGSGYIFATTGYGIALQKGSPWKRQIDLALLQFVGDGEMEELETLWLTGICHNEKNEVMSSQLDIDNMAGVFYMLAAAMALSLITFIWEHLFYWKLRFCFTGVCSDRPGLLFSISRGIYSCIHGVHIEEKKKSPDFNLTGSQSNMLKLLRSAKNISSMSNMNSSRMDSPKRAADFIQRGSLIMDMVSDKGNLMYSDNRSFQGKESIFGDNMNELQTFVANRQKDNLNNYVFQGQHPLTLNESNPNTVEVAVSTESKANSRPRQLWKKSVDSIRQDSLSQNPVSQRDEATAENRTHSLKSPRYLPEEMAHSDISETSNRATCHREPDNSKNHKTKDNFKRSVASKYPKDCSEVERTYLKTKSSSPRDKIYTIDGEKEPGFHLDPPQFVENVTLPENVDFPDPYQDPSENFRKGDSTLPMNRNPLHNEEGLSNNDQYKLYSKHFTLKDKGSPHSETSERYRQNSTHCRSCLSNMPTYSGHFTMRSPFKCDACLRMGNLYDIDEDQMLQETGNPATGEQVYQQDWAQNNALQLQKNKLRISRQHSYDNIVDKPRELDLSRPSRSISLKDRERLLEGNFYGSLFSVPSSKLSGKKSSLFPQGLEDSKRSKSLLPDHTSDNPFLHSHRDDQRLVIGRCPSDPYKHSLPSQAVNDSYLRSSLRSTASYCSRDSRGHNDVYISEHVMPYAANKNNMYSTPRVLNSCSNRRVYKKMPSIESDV
# test-protocol: [3H]MK-801 binding in NMDAR2A expressing HEK cell membranes
# Type: biochemical
# experimental-parameters: 50 μM glutamate
quantity: A: % maximal [3H]MK-801 binding relative to 1 mM glycine

Known results for molecules:
molecule	assayed-target	observed-measurement
CC(C)(C)OC(=O)N1CCCC2(CCNC2=O)C1 (single isomer, unassigned) [RE-1]	NMDAR2A (Homo sapiens, UniProt Q12879)	− (−=0)
O=C1NCCC12CCCNC2 (centres unmarked) [RC-1, 2,7-diazaspiro[4.5]decan-1-one]	NMDAR2A (Homo sapiens, UniProt Q12879)	+ (<100%=+)
CC(C)(C)OC(=O)N1CCCC2(CCNC2=O)C1 (single isomer, unassigned) [RA-1]	NMDAR2A (Homo sapiens, UniProt Q12879)	+ (<100%=+)
CC(C)C(=O)N1CCCC12CCNC2=O (centres unmarked) [RZ-405]	NMDAR2A (Homo sapiens, UniProt Q12879)	+ (<100%=+)
CC(=O)N1CCCC12CCNC2=O (centres unmarked) [RZ-404]	NMDAR2A (Homo sapiens, UniProt Q12879)	+ (<100%=+)
CC(C)(C)OC(=O)N1CCCCC12CCNC2=O (centres unmarked) [RG-606]	NMDAR2A (Homo sapiens, UniProt Q12879)	− (−=0)

Asked: // query A: % maximal [3H]MK-801 binding relative to 1 mM glycine value for entry CC(C)(C)OC(=O)N1CCCCC12CCNC2=O (centres unmarked) [RG-605]
Given back: + (<100%=+)

Asked: Please report the recorded A: % maximal [3H]MK-801 binding relative to 1 mM glycine for O=C1NCCC12CCCCN2 (centres unmarked) .
Given back: + (<100%=+)

Asked: Which A: % maximal [3H]MK-801 binding relative to 1 mM glycine reading was recorded for the molecule CC(C)(C)OC(=O)N1CCCC12CCNC2=O (single isomer, unassigned) ?
Given back: + (<100%=+)

Asked: State the recorded A: % maximal [3H]MK-801 binding relative to 1 mM glycine for this entry: CC(=O)N1CCCC12CCNC2=O (centres unmarked) [RZ-403]
Given back: − (−=0)

Asked: Given the entry CC(C)C(=O)N1CCCC12CCNC2=O (centres unmarked) [RZ-406] , report its measured A: % maximal [3H]MK-801 binding relative to 1 mM glycine.
Given back: − (−=0)
